Target: T1, EsCas13d, nuclease-dead (Eubacterium siraeum, UniProt B0MS50, R295A;H300A;R849A;H854A)
T1 sequence: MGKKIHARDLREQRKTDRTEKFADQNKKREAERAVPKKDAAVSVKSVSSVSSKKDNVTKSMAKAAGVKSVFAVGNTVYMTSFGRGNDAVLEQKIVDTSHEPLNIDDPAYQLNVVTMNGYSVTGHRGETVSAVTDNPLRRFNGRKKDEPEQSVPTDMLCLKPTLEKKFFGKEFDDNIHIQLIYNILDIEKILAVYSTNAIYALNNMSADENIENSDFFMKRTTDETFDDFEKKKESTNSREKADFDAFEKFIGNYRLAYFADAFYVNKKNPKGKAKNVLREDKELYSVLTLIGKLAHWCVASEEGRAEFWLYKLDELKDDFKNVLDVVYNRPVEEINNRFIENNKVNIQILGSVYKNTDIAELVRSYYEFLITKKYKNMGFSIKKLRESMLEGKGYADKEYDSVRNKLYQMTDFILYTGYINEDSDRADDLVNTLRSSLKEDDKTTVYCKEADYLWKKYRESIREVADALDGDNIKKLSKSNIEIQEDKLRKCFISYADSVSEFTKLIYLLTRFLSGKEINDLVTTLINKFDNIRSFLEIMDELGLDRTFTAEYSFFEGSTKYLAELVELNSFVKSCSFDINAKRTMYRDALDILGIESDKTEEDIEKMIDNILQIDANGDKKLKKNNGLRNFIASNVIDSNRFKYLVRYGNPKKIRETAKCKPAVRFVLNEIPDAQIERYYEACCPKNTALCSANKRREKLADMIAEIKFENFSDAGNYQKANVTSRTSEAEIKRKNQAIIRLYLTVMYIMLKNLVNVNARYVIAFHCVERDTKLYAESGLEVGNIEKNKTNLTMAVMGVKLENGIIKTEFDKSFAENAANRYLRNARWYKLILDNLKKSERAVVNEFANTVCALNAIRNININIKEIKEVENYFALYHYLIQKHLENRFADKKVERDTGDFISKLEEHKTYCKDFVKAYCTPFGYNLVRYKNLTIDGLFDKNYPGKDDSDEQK
Assay: crRNA (strand 1, pre-loaded); Mg2+; 40 mM Tris-HCl pH 7.5, 150 mM NaCl, 6 mM MgCl2, 1 mM DTT, 0.1% Tween-20, 0.2 mg/ml BSA; 25 C; 10 min per concentration, then washed
Conditions: tags: His6-TwinStrep-SUMO cleaved; N-terminal SNAP kept (SNAP-Surface 488); label: 3' end held by stalled T7 RNA polymerase
pKd: −log10 of the molar value.

{"columns": ["binder", "pKd"],
 "data": [
  ["target 3 G3U,U8G (mixed) RNA 1: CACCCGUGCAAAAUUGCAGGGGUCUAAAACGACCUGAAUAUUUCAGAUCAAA RNA 2: GGGAAUGGAUCCACAUCUACGAAUUCGUUUUUGAUCUGAAAUAGUCAGUUCUGCAGAUCGGAAGAGCACACGU", 7.17],
  ["target 2 MT 5'PFS CAU 3'PFS CAA (mixed) RNA 1: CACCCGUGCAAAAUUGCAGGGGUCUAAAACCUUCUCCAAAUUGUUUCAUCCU RNA 2: GGGAAUGGAUCCACAUCUACGAAUUCCAUAGGAUGAAACAAUUUGGAGAAGCAAAGAUCGGAAGAGCACACGU", 8.28],
  ["target 2 MT 5'PFS GAC 3'PFS AUG (mixed) RNA 1: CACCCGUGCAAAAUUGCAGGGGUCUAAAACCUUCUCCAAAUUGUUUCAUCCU RNA 2: GGGAAUGGAUCCACAUCUACGAAUUCGACAGGAUGAAACAAUUUGGAGAAGAUGAGAUCGGAAGAGCACACGU", 7.66],
  ["target 1 MT 5'PFS GGA 3'PFS UAG (mixed) RNA 1: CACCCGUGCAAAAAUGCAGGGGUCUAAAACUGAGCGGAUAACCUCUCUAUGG RNA 2: GGGAAUGGAUCCACAUCUACGAAUUCGGACCAUAGAGAGGUUAUCCGCUCAUAGAGAUCGGAAGAGCACACGU", 7.75],
  ["target 1 U8C,U10A (mixed) RNA 1: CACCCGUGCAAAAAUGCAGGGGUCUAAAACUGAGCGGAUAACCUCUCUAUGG RNA 2: GGGAAUGGAUCCACAUCUACGAAUUCGUACCAUAGAGAGGUAACCCGCUCACCGAGAUCGGAAGAGCACACGU", 7.96],
  ["target 3 insC 3' of 4,insC 3' of 2 (mixed) RNA 1: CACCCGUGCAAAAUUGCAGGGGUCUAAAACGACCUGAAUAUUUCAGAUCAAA RNA 2: GGGAAUGGAUCCACAUCUACGAAUUCGUUUUUGAUCUGAAAUAUUCAGCGUCCUGCAGAUCGGAAGAGCACACGU", 7.14],
  ["target 3 C6A,A11G (mixed) RNA 1: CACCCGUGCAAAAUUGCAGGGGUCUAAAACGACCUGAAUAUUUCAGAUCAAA RNA 2: GGGAAUGGAUCCACAUCUACGAAUUCGUUUUUGAUCUGAAGUAUUAAGGUCUGCAGAUCGGAAGAGCACACGU", 7.01],
  ["target 3 C1U (mixed) RNA 1: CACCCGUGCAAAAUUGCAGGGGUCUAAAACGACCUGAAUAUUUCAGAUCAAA RNA 2: GGGAAUGGAUCCACAUCUACGAAUUCGUUUUUGAUCUGAAAUAUUCAGGUUUGCAGAUCGGAAGAGCACACGU", 7.60],
  ["target 2 MT 5'PFS GGU 3'PFS CAA (mixed) RNA 1: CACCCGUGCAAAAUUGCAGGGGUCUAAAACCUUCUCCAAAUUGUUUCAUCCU RNA 2: GGGAAUGGAUCCACAUCUACGAAUUCGGUAGGAUGAAACAAUUUGGAGAAGCAAAGAUCGGAAGAGCACACGU", 8.07],
  ["target 1 U11C,A20U (mixed) RNA 1: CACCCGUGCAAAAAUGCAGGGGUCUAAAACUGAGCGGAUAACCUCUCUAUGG RNA 2: GGGAAUGGAUCCACAUCUACGAAUUCGUACCUUAGAGAGGCUAUCCGCUCACCGAGAUCGGAAGAGCACACGU", 7.26],
  ["target 2 MT 5'PFS AGA 3'PFS UGU (mixed) RNA 1: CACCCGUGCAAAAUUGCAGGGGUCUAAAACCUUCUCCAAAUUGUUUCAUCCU RNA 2: GGGAAUGGAUCCACAUCUACGAAUUCAGAAGGAUGAAACAAUUUGGAGAAGUGUAGAUCGGAAGAGCACACGU", 8.02],
  ["target 2 MT 5'PFS GAU 3'PFS UCU (mixed) RNA 1: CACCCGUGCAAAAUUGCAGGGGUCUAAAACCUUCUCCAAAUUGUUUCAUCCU RNA 2: GGGAAUGGAUCCACAUCUACGAAUUCGAUAGGAUGAAACAAUUUGGAGAAGUCUAGAUCGGAAGAGCACACGU", 7.25]
]}
